# Measured target: Luciferin 4-monooxygenase (Photinus pyralis)
# Measurement protocol: qHTS profiling assay for firefly luciferase inhibitor/activator using purifed enzyme and Km concentrations of substrates (counterscreen for miR-21 project); also: nearly all actives have a fitted effect of over 55% in size
# Measurement context: purified FLuc, luminescence inhibition; series mostly up to 57.5 µM
About 25,000 (6.9%) of roughly 360,000 compounds were called active. Inconclusive results (about 9%) are left out. Calls follow the shape of the dose curve; as a rule, active = well fitted inhibition curve with a large enough effect; inconclusive = small, poorly fitted or top-dose-only effect; inactive = flat fitted curve, though single readings scatter. This is one part of a sample in which actives are shown more often than they occur.
Labels: YES for active, NO for inactive

# Compound, Class label
records = [
    ("Cc1cccc(NC(=O)Cn2nc(-c3ccc(Cl)cc3)c3ccccc3c2=O)c1", "NO"),
    ("CCOC(=O)c1sc(NC(=O)c2cc(S(=O)(=O)N3CCOCC3)ccc2C)nc1C", "NO"),
    ("COc1ccc(-c2noc(C(C)NS(=O)(=O)c3ccc(NC(C)=O)cc3)n2)cc1 (stereo not given)", "NO"),
    ("CCOC(=O)c1c(C)n(S(=O)(=O)c2ccc(C)cc2C)c2ccc(NS(=O)(=O)c3ccc(C)cc3C)cc12", "NO"),
    ("Cc1nc2ccn(Cc3cccnc3)c(=O)c2cc1C(=O)N1CCN(c2ccccc2F)CC1", "NO"),
    ("CCOC(=O)C1CCN(C(c2ccc(F)cc2)c2sc3nc(-c4ccco4)nn3c2O)CC1 (stereo not given)", "NO"),
    ("Cc1ccccc1NC(=O)Cc1nc(COC(=O)c2ccc(C(F)(F)F)cc2)cs1", "NO"),
    ("Cc1ccc(CCNC(=O)c2nnc(Cc3cccc(F)c3)o2)cc1", "NO"),
    ("O=S(=O)(NCC(c1ccccc1)N1CCc2ccccc21)c1ccccc1 (stereo not given)", "NO"),
    ("CC(C)c1nc2ccc(C(=O)O)cc2[nH]1", "YES"),
    ("COc1ccccc1CNC(=O)c1cc(=O)c2ccccc2o1", "NO"),
    ("FC(F)(F)c1cnc(Oc2ccccc2-c2nnc(-c3ccc(Cl)cc3)o2)c(Cl)c1", "NO"),
    ("O=C(COc1ccccc1)OCc1cc(=O)n2nc(-c3cccs3)sc2n1", "NO"),
    ("COc1cccc(-c2n[nH]c3c2C(c2cccc(O)c2)N(C)C3=O)c1 (stereo not given)", "NO"),
    ("Cc1ccc(OCC(=O)Nc2ccc(OCc3cc(=O)n4c(C)csc4n3)cc2)cc1C", "NO"),
    ("O=C(N/N=C/c1ccco1)c1ccc(NC(=O)C2CC2)cc1", "NO"),
    ("Cc1cc(C)n2nc(C(=O)OCC(=O)N(C)CC(=O)Nc3ccc(F)cc3)nc2n1", "NO"),
    ("COc1ccc(-c2c(C)nn3c(N4CCC(C(=O)NCCC(C)C)CC4)cc(C)nc23)cc1OC", "NO"),
    ("Cc1c(C)n2c(SCC(=O)N3CCCC3)nnc2[nH]c1=O", "NO"),
    ("O=S(=O)(c1cccc(S(=O)(=O)N2CCC(n3nnc4ccccc43)CC2)c1)N1CCCCC1", "NO"),
    ("Cc1ccc(NC(=O)c2csc3c2CCCC3)cc1", "YES"),
    ("Cc1ccc(CSc2nc3ccsc3c(=O)n2CCC(C)C)cc1", "NO"),
    ("O=C(N/N=C/c1ccco1)c1csc2c1CCCC2", "YES"),
    ("COc1ccc(N2CCN(C3=NS(=O)(=O)C(c4cccc(Br)c4)=C3C)CC2)cc1", "NO"),
    ("OC(c1nc2ccc(F)cc2[nH]1)C(O)c1nc2ccc(F)cc2[nH]1 (stereo not given)", "NO"),
]
